molecules and their reported IC50
test system: HL-60 cells; assay: Cytotoxic activity (MTS assay); type: cell-based, human; settings: HL-60, MTS, 24 h; read-out: Cytotoxicity, IC50 HL-60
All answers are understood in µM, so give the number only.

stdin: Under HL-60 cells: report IC50 of CO[C@@H]1[C@@H](O)[C@H](O[C@@H]2[C@@H](O)[C@H](O[C@H]3[C@H](O)[C@@H](O[C@H]4OC[C@H](O)[C@H](O)[C@@H]4O)[C@H](O[C@H]4[C@H](O[C@H]5CC[C@]6(C)[C@@H]7CC[C@]89C(=O)O[C@@](C)(C[C@@H](O)CC(C)C)[C@H]8[C@@H](OC(C)=O)C[C@@]9(C)C7=CC[C@H]6C5(C)C)OC[C@@H](OS(=O)(=O)O)[C@@H]4O)O[C@@H]3C)OC[C@H]2O)O[C@H](CO)[C@H]1O [frondoside D] .
stdout: 18.1

stdin: Tell me IC50 of COC1C(O)C(CO)OC(OC2C(O)COC(OC3C(C)OC(OC4C(OC5CCC6(C)C7CCC89C(=O)OC(C)(CC(=O)CC(C)C)C8C(OC(C)=O)CC9(C)C7=CCC6C5(C)C)OCC(OS(=O)(=O)[O-])C4O)C(O)C3O)C2O)C1O.[Na+] (centres unmarked) [okhotoside A1-1] when tested on HL-60 cells.
stdout: 2.52

* * *

test: Cytotoxic activity (MTT assay); type: cell-based, human; details: human
# EC50 at 72 h annotations
Give the value in µM but do not write µM after it.

• CO[C@@H]1[C@@H](O)[C@H](O[C@@H]2[C@@H](O)[C@H](O[C@H]3[C@H](O)[C@@H](O)[C@H](O[C@H]4[C@H](O[C@H]5CC[C@]6(C)[C@@H]7CCC89C(=O)O[C@@](C)([C@H](O)C(=O)CC(C)C)[C@H]8[C@@H](OC(C)=O)C[C@@]9(C)C7=CC[C@H]6C5(C)C)OC[C@@H](OS(=O)(=O)O)[C@@H]4O)O[C@@H]3C)OC[C@H]2O)O[C@H](CO)[C@H]1O (some centres unmarked) [djakonovioside A1 (2)] = 6.25

// moving on: another record for EC50 at 72 h
stdin: Return EC50 at 72 h for the following molecule: CO[C@@H]1[C@@H](O)[C@H](O[C@@H]2[C@@H](O)[C@H](O[C@H]3[C@H](O)[C@@H](O)[C@H](O[C@H]4[C@H](O[C@H]5CC[C@]6(C)[C@@H]7CCC89C(=O)O[C@@](C)(C[C@@H](O)CC(C)C)[C@H]8[C@@H](OC(C)=O)C[C@@]9(C)C7=CC[C@H]6C5(C)C)OC[C@@H](OS(=O)(=O)O)[C@@H]4O)O[C@@H]3C)OC[C@H]2O)O[C@H](CO)[C@H]1O (some centres unmarked) [djakonovioside A (1)]
stdout: 3.77

* * *

system: MDA-MB-231 cells; assay: Cytotoxic activity (MTT assay); assay type: cell-based, human; conditions: MDA-MB-231, 48 h; read-out: Cytotoxic effect EC50 on MDA-MB-231, 48 h
Measure name: EC50

stdin: Answer with the recorded EC50 of COC1C(O)C(CO)OC(OC2C(O)COC(OC3C(C)OC(OC4C(OC5CCC6(C)C7CCC89C(=O)OC(C)(CC(=O)CC(C)C)C8C(OC(C)=O)CC9(C)C7=CCC6C5(C)C)OCC(OS(=O)(=O)[O-])C4O)C(O)C3O)C2O)C1O.[Na+] (stereo not shown) [okhotoside A1-1] only.
stdout: 2050 nM

Values from paper PMC10342010
